Kindly find below pKi information for Thermolysin (Bacillus thermoproteolyticus, UniProt P00800) taken from the literature.
pKi: −log10 of the molar value.
value-type: pKi

> print(dat)
                                   molecule                              assay.target  value.type  observed.value
1  CC(C)CC(OP(=O)(O)[C@@H](CC(C)C)NC(=O)OCc1ccccc1)C(=O)NC(C)C(=O)O (stereo not given in full)  Thermolysin (Bacillus thermoproteolyticus, UniProt P00800)         pKi            4.38
2  CC(C)C[C@H](NP(=O)(O)CNC(=O)OCc1ccccc1)C(=O)NCCc1ccccc1  Thermolysin (Bacillus thermoproteolyticus, UniProt P00800)         pKi            6.53
3  CC[C@H](NP(=O)(O)CNC(=O)OCc1ccccc1)C(=O)N[C@@H](CC(C)C)C(=O)O  Thermolysin (Bacillus thermoproteolyticus, UniProt P00800)         pKi            6.22
4  COC(=O)[C@H](CC(C)C)NC(=O)[C@H](CC(C)C)C[N+](=O)[O-]  Thermolysin (Bacillus thermoproteolyticus, UniProt P00800)         pKi            7.08
5  CC(C)CC(OP(=O)(O)[C@@H](C)NC(=O)OCc1ccccc1)C(=O)NC(C)C(=O)O (stereo not given in full)  Thermolysin (Bacillus thermoproteolyticus, UniProt P00800)         pKi            4.62

###

Kindly find below Ki information for Thermolysin (Bacillus thermoproteolyticus, UniProt P00800) taken from the literature.
assay-target: Thermolysin (Bacillus thermoproteolyticus, UniProt P00800)
Sequence (P00800 whole entry): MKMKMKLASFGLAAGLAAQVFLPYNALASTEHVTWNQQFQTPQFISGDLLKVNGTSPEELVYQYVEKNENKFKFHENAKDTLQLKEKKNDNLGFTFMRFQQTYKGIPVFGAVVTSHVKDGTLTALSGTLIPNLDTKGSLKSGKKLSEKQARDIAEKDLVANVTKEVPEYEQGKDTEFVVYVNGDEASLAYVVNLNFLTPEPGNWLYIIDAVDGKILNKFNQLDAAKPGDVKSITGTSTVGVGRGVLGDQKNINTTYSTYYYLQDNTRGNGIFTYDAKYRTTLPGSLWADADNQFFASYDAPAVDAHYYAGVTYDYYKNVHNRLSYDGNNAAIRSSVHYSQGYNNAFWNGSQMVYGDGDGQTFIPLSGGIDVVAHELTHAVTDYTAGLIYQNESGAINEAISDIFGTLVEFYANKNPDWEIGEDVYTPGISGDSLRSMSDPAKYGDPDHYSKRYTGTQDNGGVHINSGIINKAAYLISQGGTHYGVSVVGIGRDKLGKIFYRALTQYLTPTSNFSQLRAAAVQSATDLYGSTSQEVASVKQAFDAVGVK
Lab note: cut-off is 30 µM. Strictly less in Ki is Yes. Exactly 30 µM or more is No.

> print(dat)
                                   compound                              assay.target  category
1  C[C@H](NC(=O)[C@H](Cc1ccccc1)NC(=O)CO)C(=O)NCC(N)=O  Thermolysin (Bacillus thermoproteolyticus, UniProt P00800)        No
2  CC(C)C[C@@H](NC(=O)CNC(=O)OCc1ccccc1)C(=O)NO  Thermolysin (Bacillus thermoproteolyticus, UniProt P00800)        No
3  C[C@H](NC(=O)[C@H](Cc1ccccc1)C(=O)O)C(=O)NCC(N)=O  Thermolysin (Bacillus thermoproteolyticus, UniProt P00800)        No
4  C[C@H](NC(=O)[C@H](C)NP(=O)(O)CNC(=O)OCc1ccccc1)C(=O)O  Thermolysin (Bacillus thermoproteolyticus, UniProt P00800)       Yes
5  CC(C)CC(CP(=O)(O)CNC(=O)OCc1ccccc1)C(=O)NC(CC(C)C)C(=O)O (configuration not stated)  Thermolysin (Bacillus thermoproteolyticus, UniProt P00800)       Yes
6  O=CN(O)CC(Cc1ccccc1)C(=O)NCC(=O)O (configuration not stated)  Thermolysin (Bacillus thermoproteolyticus, UniProt P00800)        No
